Recorded values, source ChEMBL document CHEMBL1148991.

# Test system: Candida albicans
# method description: Antifungal activity against polyene-resistant Candida albicans by broth microdilution assay
# Format: functional, organism-based
reported property: IC50 (µg/mL)
Lab book: enter the figure in µg/mL, no units written.

chemical smiles: Oc1cc2c(cc1O)[C@@H]1Oc3cc4c(cc3[C@@H]1CO2)OCO4
IC50 (µg/mL): 128

Now examine the next entry.
[Q] Note down IC50 recorded for `C[C@@H]1[C@H](O)[C@@H](C)/C=C/C=C/C=C/C=C/C=C/C=C/C=C/[C@H](O[C@@H]2O[C@H](C)[C@@H](O)[C@H](N)[C@@H]2O)C[C@@H]2O[C@](O)(C[C@@H](O)C[C@@H](O)[C@H](O)CC[C@@H](O)C[C@@H](O)CC(=O)O[C@H]1C)C[C@H](O)[C@H]2C(=O)O`
[A] 3
